IC50 listing for selected compounds.
Test system: E. coli S30 extract (bacterial protein synthesis)
Assay: E. coli S30 extract coupled transcription-translation luciferase assay (inhibition of bacterial protein synthesis)
Format: biochemical
Settings: % inhibition @ 1 μM, read-out: S30 IC50 (μM/% inhib.)

Example results:
Prompt line: Quick one: IC50 of `NC[C@H]1CCN(C(=O)Nc2ccn(-c3ccc(CN4C[C@@H]5[C@@H](N)[C@@H]5C4)cc3)c(=O)n2)C1` ?
Response line: ≥ 1 µM

Prompt line: Quick one: IC50 of `CC(C)(N)C(=O)N1CCN(C(=O)Nc2ccn(-c3ccc(CCCN4C[C@@H]5[C@@H](N)[C@@H]5C4)cc3)c(=O)n2)CC1` ?
Response line: ≥ 1 µM

Prompt line: Quick one: IC50 of `NCCC1CCN(C(=O)Nc2ccn(-c3ccc(CN4C[C@@H]5[C@@H](N)[C@@H]5C4)cc3)c(=O)n2)CC1` ?
Response line: ≥ 1 µM

Prompt line: Quick one: IC50 of CC(Cc1ccc(-n2ccc(NC(=O)N3CCN(C(=O)C(C)(C)N)CC3)nc2=O)cc1)N1CC2CCC(N)CC2C1 (stereo not drawn) [Compound 215] ?
Response line: < 0.5 µM

Prompt line: Quick one: IC50 of CC(Cc1ccc(-n2ccc(NC(=O)N3CCN(C(=O)[C@@H](N)CCCCN)CC3)nc2=O)cc1)N1C[C@@H]2[C@@H](CN)[C@@H]2C1 (stereo partly drawn) ?
Response line: < 0.5 µM

Prompt line: Quick one: IC50 of CC(Cc1ccc(-n2ccc(NC(=O)N3CCN(C(=O)C(C)(C)N)CC3)nc2=O)cc1)N(C)C12CC(N)(C1)C2 (stereo not drawn) ?
Response line: ≥ 1 µM

Now look at this one.
Prompt line: Quick one: IC50 of CC(=O)NC[C@@H]1[C@H]2CN(C(C)Cc3ccc(-n4ccc(NC(=O)N5CCN(C(=O)C(C)(C)N)CC5)nc4=O)cc3)C[C@@H]12 (stereo partly drawn) ?
Response line: ≥ 1 µM

----------
IC50 listing for selected compounds.
Test system: E. coli S30 extract (bacterial protein synthesis)
Assay: E. coli S30 extract coupled transcription-translation luciferase assay (inhibition of bacterial protein synthesis)
Assay type: biochemical
Settings: % inhibition @ 1 μM, read-out: S30 IC50 (μM/% inhib.)

Prompt line: Quick one: IC50 of CC(Cc1ccc(-n2ccc(NC(=O)N3CCN(C(=O)C(C)(C)N)CC3)nc2=O)cc1C(F)(F)F)N1C[C@@H]2[C@@H](CN)[C@@H]2C1 (stereo partly drawn) ?
Response line: < 0.5 µM

Prompt line: Quick one: IC50 of CCC(Cc1ccc(-n2ccc(NC(=O)N3CCN(C(=O)C(C)(C)N)CC3)nc2=O)cc1)N1CC2CCC(N)C2C1 (stereo not drawn) ?
Response line: < 0.5 µM

Prompt line: Quick one: IC50 of CC(Cc1ccc(-n2ccc(NC(=O)N3CCN(C(=O)[C@H]4C[C@@H](N)C4)CC3)nc2=O)cc1)N1C[C@@H]2[C@@H](CN)[C@@H]2C1 (stereo partly drawn) ?
Response line: ≥ 1 µM

***
Prompt line: Quick one: IC50 of `CC(C)(N)C(=O)N1C[C@H]2CN(C(=O)Nc3ccn(-c4ccc(CN5C[C@@H]6[C@@H](N)[C@@H]6C5)cc4)c(=O)n3)C[C@H]2C1` ?
Response line: ≥ 1 µM

Prompt line: Quick one: IC50 of CC(Cc1ccc(-n2ccc(NC(=O)N3CCN(C(=O)C(C)(C)N)CC3)nc2=O)cc1)N1CC2CCC(N)CC2C1 (stereo not drawn) [Compound 242] ?
Response line: 0.5 to 1 µM

Prompt line: Quick one: IC50 of CC(COc1ccc(-n2ccc(NC(=O)N3CCN(C(=O)C(C)(C)N)CC3)nc2=O)cc1)N1C[C@@H]2[C@@H](CN)[C@@H]2C1 (stereo partly drawn) ?
Response line: < 0.5 µM

Prompt line: Quick one: IC50 of CC(Cc1ccc(-n2ccc(NC(=O)N3CCN(C(=O)[C@H]4C[C@H](N)C4)CC3)nc2=O)cc1)N1C[C@@H]2[C@@H](CN)[C@@H]2C1 (stereo partly drawn) ?
Response line: ≥ 1 µM

Prompt line: Quick one: IC50 of `CCC(N)(CC)C(=O)N1CCN(C(=O)Nc2ccn(-c3ccc(CN4C[C@@H]5[C@@H](N)[C@@H]5C4)cc3)c(=O)n2)CC1` ?
Response line: < 0.5 µM
